Where do these numbers come from? They come from patent US20230295310A1.

# experimental_target: T1, human CD3e/g (human, UniProt P07766 23-126; P09693 23-116)
# T1 construct: Bought soluble protein; also called hCD3e/g; human CD3e/g (Acro CDD-C52W4)
# T1 sequence (P07766 23-126, chain 1 of 2): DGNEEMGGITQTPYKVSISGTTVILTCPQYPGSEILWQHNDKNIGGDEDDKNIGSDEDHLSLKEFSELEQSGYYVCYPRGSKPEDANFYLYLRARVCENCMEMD
# T1 sequence (P09693 23-116, chain 2 of 2): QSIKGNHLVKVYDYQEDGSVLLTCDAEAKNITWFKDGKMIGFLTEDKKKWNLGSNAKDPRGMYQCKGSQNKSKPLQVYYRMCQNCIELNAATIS
# assay_notes: SPR (Carterra LSA), mAb on chip
experimental_readout: pKd
Give only the number. pKd is defined as minus log10 of concentration in molar units.

**Q:** Retrieve pKd measured for mAb 49 (antibody, V domains shown, VH and VL only) VH: EVQLVESGGGLVPPGGSLRLSCVASGFTLRSYTMNWVRQAPGQGLEWISYISSTSRTIYYSDSVKGRFTISRDNAKNSLYLQVNSLRDEDTALYYCAREDYYDSSGFDCWGQGTLVTVSS VL: AIRMTQSPSSFSASTGDRVTITCRASQGIFNYLAWYQQKPGKAPKLLIYSTSTLQSGVPSRFSGSGSGTDFTLTIRGLQSEDLATYYCQQYYSFPRTFGQGTKVDIK and print it.
**A:** 8.44
